Sourced from patent US20240182536A1

# ASSAY TARGET: T1, IL-18 receptors on HEK-Blue IL-18 reporter cells (UniProt Q13478 19-541; O95256 20-599, limits assumed)
# T1 sequence (looked up) 1: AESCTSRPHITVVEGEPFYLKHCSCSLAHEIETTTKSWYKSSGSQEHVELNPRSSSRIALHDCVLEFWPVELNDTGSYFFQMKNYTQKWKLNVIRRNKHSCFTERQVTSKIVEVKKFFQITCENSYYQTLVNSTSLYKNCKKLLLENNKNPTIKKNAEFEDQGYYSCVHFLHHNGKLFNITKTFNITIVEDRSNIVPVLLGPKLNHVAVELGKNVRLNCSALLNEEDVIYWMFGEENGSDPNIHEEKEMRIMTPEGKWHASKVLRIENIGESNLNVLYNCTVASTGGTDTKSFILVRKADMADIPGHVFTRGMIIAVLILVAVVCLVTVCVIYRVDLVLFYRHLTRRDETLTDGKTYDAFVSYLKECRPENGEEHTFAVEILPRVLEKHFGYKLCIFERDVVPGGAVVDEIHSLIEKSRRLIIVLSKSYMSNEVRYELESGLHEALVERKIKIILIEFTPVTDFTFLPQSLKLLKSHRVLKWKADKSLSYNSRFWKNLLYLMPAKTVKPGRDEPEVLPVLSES
# T1 sequence (looked up) 2: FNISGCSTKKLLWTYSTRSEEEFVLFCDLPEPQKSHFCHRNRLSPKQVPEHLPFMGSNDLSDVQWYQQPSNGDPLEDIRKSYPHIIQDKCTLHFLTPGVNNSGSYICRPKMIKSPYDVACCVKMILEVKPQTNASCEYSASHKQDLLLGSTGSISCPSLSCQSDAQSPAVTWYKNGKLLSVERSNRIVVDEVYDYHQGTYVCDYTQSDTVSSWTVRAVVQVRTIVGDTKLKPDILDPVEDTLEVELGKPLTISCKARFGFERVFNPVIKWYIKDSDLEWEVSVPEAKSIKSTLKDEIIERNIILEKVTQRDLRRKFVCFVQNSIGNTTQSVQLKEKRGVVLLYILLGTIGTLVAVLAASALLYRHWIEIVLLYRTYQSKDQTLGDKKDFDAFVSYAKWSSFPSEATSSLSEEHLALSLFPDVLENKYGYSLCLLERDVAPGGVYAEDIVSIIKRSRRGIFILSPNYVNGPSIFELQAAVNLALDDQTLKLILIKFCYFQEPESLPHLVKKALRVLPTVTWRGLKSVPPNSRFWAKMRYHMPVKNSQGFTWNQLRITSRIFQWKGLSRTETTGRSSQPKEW
# MEASUREMENT DESCRIPTION: cell-based or functional assay
Exercise: state measured HEK-blue EC50 (pM) - BP for each of the binders provided.
Numbers only, in pM.

human IL-18 variant G3V/K53A/M60K (ligand) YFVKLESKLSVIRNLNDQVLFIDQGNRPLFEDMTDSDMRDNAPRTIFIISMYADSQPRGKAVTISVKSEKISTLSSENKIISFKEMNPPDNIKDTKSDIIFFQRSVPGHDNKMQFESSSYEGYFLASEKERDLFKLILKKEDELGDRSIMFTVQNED :: 0.041

For each listed entry, give its HEK-blue EC50 (pM) - BP.
1. human IL-18 variant G3T/K53S/M60K (ligand) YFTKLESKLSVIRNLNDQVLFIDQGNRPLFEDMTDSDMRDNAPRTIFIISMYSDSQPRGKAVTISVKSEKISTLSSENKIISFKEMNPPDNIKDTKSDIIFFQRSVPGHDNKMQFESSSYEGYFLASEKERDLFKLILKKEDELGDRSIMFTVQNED
2. human IL-18 variant G3V/E6K/K53S/M60K (ligand) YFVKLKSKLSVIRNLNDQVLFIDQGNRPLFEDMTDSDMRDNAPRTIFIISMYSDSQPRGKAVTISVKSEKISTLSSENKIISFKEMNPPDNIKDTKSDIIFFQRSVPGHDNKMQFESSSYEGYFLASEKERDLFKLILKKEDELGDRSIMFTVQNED

**A:**
1. 4.26
2. 0.079
